- Measurement protocol: Plasma pharmacokinetics after repeated nebulized dosing
- Type: in vivo, human
- Experimental conditions: human, inhaled, 5 mg, t½, apparent terminal half-life, geometric mean (CV%)
Endpoint: half-life (h)

| Compound | Endpoint | Assay value |
| --- | --- | --- |
| Cc1cnc(N2CC3(CCOCC3)C2)c(C(=O)Nc2ccc(C(=O)N3CCc4cc(C(=O)Nc5c(C)cccc5F)sc4-c4ccccc43)cc2)c1 [PC786] | half-life | 12.1 |

Cited source for all entries: paper PMC9200148
